Provenance of the data: patent US20110207660A1

- experiment: Clinical Study 2: once-a-day 300 mg Compound I with 100 mg ritonavir for 10 days, healthy human subjects, fed
- assay setup: in vivo, steady state, Day 10, formulation G tablets 3×100 mg QD + 100 mg ritonavir QD, 8 healthy human subjects, read-out: Cmin Range

| compound | concentration at 10 days |
| --- | --- |
| CCCC[C@H](NC(=O)[C@@H]1[C@@H]2[C@H](CN1C(=O)[C@@H](NC(=O)NC1(CS(=O)(=O)C(C)(C)C)CCCCC1)C(C)(C)C)C2(C)C)C(=O)C(=O)NC1CC1 [Compound I] | 167 to 426 ng/mL |
